Recorded Kd values for a group of substances are listed next.
# experimental target: rhTNF-α (Homo sapiens, UniProt P01375)
# Sequence (P01375 77-233 limits assumed): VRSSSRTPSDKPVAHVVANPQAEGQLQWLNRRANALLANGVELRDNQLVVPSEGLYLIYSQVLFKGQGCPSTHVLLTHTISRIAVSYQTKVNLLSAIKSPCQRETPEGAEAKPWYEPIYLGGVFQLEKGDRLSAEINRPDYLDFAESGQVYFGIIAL
# assay name: Microscale thermophoresis (MST) binding to labeled rhTNF-α
# measurement context: labeled rhTNF-α 20 nM, PBS, mean ± SD of three replicates
Where no end group is shown, it is not given here.
Please give a number only; it is taken to be in nM.

Observe how each entry below is paired with its result.
substance | readout unit | Kd
KGGGSGGGSHIHDDLLRYYGW-NH2 [OB1] | nM | 300
KRWSRYFWVDMTGTR-NH2 [OB8] | nM | 3890

Turning to the following substance.
Given item KGGGSGGGSGGGSRKEMGQV-NH2 [OB2] , the value recorded as its Kd is 46.7
